Reported log10(Kd) by item:
molecular target: Galectin-9 (Homo sapiens); assay: Binding affinity at recombinant human N-terminal Galectin 9 expressed in Escherichia coli BL21 incubated for 5 mins by fluorescence anisotropy assay; conditions: read-out: Kd
Sequence (O00182 whole entry): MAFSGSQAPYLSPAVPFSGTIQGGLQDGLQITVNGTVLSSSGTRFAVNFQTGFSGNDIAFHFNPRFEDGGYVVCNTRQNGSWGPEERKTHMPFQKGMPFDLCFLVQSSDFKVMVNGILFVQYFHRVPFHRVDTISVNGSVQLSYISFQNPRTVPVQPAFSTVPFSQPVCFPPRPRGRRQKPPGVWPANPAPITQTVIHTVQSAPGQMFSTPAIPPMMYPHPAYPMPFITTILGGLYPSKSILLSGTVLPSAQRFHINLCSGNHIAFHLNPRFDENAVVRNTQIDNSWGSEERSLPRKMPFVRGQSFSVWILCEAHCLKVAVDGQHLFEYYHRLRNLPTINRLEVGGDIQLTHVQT
attribute measured: log10(Kd) (log10 of the value in µM)

{"columns": ["structure smiles", "log10(Kd)"],
 "data": [
  ["CO[C@@H]1O[C@H](CO)[C@H](O)[C@H](Nc2cccc(Cl)c2)[C@H]1O", 3.18],
  ["COc1ccc(N[C@@H]2[C@@H](O)[C@@H](CO)O[C@@H](OC)[C@@H]2O)cc1", 2.76],
  ["OC[C@H]1O[C@H](Sc2ccc(Cl)c(Cl)c2)[C@H](O)[C@@H](Nc2cccc(Cl)c2)[C@H]1O", 1.15],
  ["CO[C@@H]1O[C@H](CO)[C@H](O)[C@H](Nc2cccc(C)c2)[C@H]1O", 3.23],
  ["CO[C@@H]1O[C@H](CO)[C@H](O)[C@H](Nc2ccc(C)c(C)c2)[C@H]1O", 3.04]
]}
